Origin of the recorded values: the supplement of paper PMC6555819

- Test system: RARg homodimer (NR concentration 270 nM)
- Protocol description: PBM binding z-score (relative to random genomic background probes); higher = stronger binding; sequences stand for … in GC…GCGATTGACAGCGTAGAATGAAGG
Assign PBM binding z-score to each entry below.
Answers are plain numbers.

Completed entries (count: 8):
[[record]]
construct_sequence = "AGAATGAGGTTACCATAGATCAGGGAAACGCTTG"
quantitative_result = 1.72

[[record]]
construct_sequence = "TCTAGCAGGCCAGAGGGTCGCTCAAGAGGTACGG"
quantitative_result = 0.0431

[[record]]
construct_sequence = "GATGCAGGGTCAAGGCCAGAGTACGCGTATTGAT"
quantitative_result = 4.79

[[record]]
construct_sequence = "ACTTACGGGTAAACGAGGTTATAGCACGCGTATA"
quantitative_result = 0.812

[[record]]
construct_sequence = "CCGACTGGGGCACAGGTTACCATACTCAGTACGA"
quantitative_result = 0.906

[[record]]
construct_sequence = "ATATGTAGGTTGAGGGTCATTCAGGTTGGTTCGC"
quantitative_result = 2.15

[[record]]
construct_sequence = "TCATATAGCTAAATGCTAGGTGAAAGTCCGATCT"
quantitative_result = 0.129

[[record]]
construct_sequence = "TAGCCTACGTCATGCGGGCCAGTATAGTGTCGGC"
quantitative_result = -0.536


Please state PBM binding z-score for every sequence in the list that follows.
1. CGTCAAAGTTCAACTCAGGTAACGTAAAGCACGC
2. CCCACTGGGCCAAAGGTCATTGATTCCAATGCTC
3. CCGACTGGGGCATAAGGTTACCGTAAGCCAGCCC
4. ACTATTAGTTGACTTAGGGCAACTGATACGACGC
5. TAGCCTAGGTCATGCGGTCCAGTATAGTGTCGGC

a:
1: 6.43; 2: 4.39; 3: 1.06; 4: 1.07; 5: 4.51

Please state PBM binding z-score for every sequence in the list that follows.
1. CAAACTAGGTCACGAAAGGTCTAAGTCGAATGAC
2. AGCTCTAGGTAAAGATAGTTCAGTGAATGCAAAT
3. TCGAGTAGGTAAGTCGGGGCATTCAGCCAACATA
4. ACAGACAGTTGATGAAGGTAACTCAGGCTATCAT
5. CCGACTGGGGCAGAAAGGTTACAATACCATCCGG
6. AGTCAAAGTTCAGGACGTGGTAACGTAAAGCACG

a:
1: 5.84; 2: 0.62; 3: -0.571; 4: 0.279; 5: 1.25; 6: 4.85

Please state PBM binding z-score for every sequence in the list that follows.
1. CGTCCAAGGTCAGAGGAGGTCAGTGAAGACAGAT
2. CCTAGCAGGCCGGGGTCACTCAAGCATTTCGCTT
3. CGAACTAGGTCATCCACGACAGTGAATACATTGA
4. TTCCCAAGGTGAAGGTCGTTGATCCCTCTGTAGA
5. ATATGTAGGTTACATCCGGGTCAGTCAGGCTATG
6. ACAGACAGGTGAGTGAAGGTATCTCAGCTGGACG
7. GCTAGTTGCTCAGTAAAAGGTCACACACCGGTCG

a:
1: 6.88; 2: 3.6; 3: 4.77; 4: 1.04; 5: 1.88; 6: 0.333; 7: 4.02

Please state PBM binding z-score for every sequence in the list that follows.
1. GGAACGAGGGCATTCGAGTTTATAGCATGGCGAT
2. CGTCCAAGGTCAGAGAGGTTAGTGAATGCCGAGT
3. GGGACGAGGGCATTCGAGTTGATAGCATGGCGAT
4. AGGCAAAGTTCACTAGGTAACGTAAGATTCAGCT
5. AGAACGAGGGCAATGAGTTGAAAGCACGGGTGGC
6. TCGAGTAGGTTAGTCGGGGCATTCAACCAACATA
7. GCTAGCAGGCCATTAGGGTCACTCAATGACGGGC

a:
1. 1.53
2. 5.08
3. 1.58
4. 5.51
5. 1.51
6. 0.0739
7. 2.08

* * *

Assign PBM binding z-score to each entry below.
- Test system: LXRa homodimer (NR concentration 270 nM)
- Protocol description: PBM binding z-score (relative to random genomic background probes); higher = stronger binding; sequences stand for … in GC…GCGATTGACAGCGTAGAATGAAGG
Give bare numbers.

[[record]]
construct_sequence = "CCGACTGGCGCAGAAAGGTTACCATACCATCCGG"
target_or_system = "LXRa homodimer (NR concentration 270 nM)"
quantitative_result = -0.132

[[record]]
construct_sequence = "CCTCGGATGACAGAAGGTCAGAGCTGTCCGCTTT"
target_or_system = "LXRa homodimer (NR concentration 270 nM)"
quantitative_result = 0.493

[[record]]
construct_sequence = "ACTATTAGTTGAGACGAGGTCAACCGATAGGTTG"
target_or_system = "LXRa homodimer (NR concentration 270 nM)"
quantitative_result = 2.01

[[record]]
construct_sequence = "ACAGACAGGTGAGTGAAGGTAACTCAGCTGGACG"
target_or_system = "LXRa homodimer (NR concentration 270 nM)"
quantitative_result = -0.247

[[record]]
construct_sequence = "AGTCAAAGTTCACTAGGTACCGTAAGATTCAGCT"
target_or_system = "LXRa homodimer (NR concentration 270 nM)"
quantitative_result = 3.18


Now let's try a different one.
q: GET /values?readout=PBM binding z-score&item= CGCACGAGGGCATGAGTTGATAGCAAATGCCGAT
a: -0.626

* * *

- Tested on: LXRb:RXRa (NR concentration 270 nM, RXRa partner concentration 90 nM)
- Protocol description: PBM binding z-score (relative to random genomic background probes); higher = stronger binding; sequences stand for … in GC…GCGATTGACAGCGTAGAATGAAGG
Assign PBM binding z-score to each entry below.
One number for each entry.

Completed entries (count: 8):
[[record]]
construct_sequence = "GGAACGAGGGCATTCGATTTGATAGCATGGCGAT"
quantitative_result = 0.472

[[record]]
construct_sequence = "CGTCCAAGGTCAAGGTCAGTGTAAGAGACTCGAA"
quantitative_result = 4.66

[[record]]
construct_sequence = "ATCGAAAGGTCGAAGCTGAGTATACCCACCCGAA"
quantitative_result = 2.6

[[record]]
construct_sequence = "ATCTCTAGGTAACAAGTTCTGTGAAAGAGAGGAC"
quantitative_result = 0.0812

[[record]]
construct_sequence = "CCTAGTTGGTCTGGAGGTCACACACCGGATATGA"
quantitative_result = 3.51

[[record]]
construct_sequence = "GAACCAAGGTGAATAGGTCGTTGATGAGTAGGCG"
quantitative_result = 0.55

[[record]]
construct_sequence = "ACTATTAGTTGAGACGAGGACAACCGATAGGTTG"
quantitative_result = -0.324

[[record]]
construct_sequence = "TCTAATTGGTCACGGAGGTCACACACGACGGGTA"
quantitative_result = 3.75


Please state PBM binding z-score for every sequence in the list that follows.
1. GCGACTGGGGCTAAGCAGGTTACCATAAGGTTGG
2. CAGCCTAGGTCAGGGGCAGTATAGGAGGAACGTT

a:
[-0.00625, 1.27]

Please state PBM binding z-score for every sequence in the list that follows.
1. CCTAGCCGGCCAGGGTCACTCAAGCATTTCGCTT
2. AGTCAACGTTCATCTAGGTAACGTAAGATATGCT
3. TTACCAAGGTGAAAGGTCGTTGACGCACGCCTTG
4. CCTTACGGGTCACTGACAGGTTATACCATTTGGA
5. ATATTTAGGTTACATCCGGGTCATTCAGGCTATG
6. CCGACTGGGGCATATGGTTACCATAAGCCAGCCC
7. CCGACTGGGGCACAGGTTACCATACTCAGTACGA

a:
[2.03, -0.204, 2.91, 3.61, 3.21, -0.657, 0.247]

Please state PBM binding z-score for every sequence in the list that follows.
1. ACTCGGAGTACAAAGGTCAGAGCTACGCCAGTGA
2. TGAATGAGGTTATAGATCAGGGAACGTGGCGTCG

a:
1. 3.56
2. 0.762

Please state PBM binding z-score for every sequence in the list that follows.
1. CATACAGGGTCAGCTAGGCCAGGGTAGGGACGGC
2. CCTATTAGTGGACCATAAGGGCAACCGAAGCTCG
3. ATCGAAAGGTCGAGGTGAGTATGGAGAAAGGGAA

a:
1. 1.98
2. 0.0463
3. 2.56

* * *

- System: LXRb:RXRa (NR concentration 270 nM, RXRa partner concentration 90 nM)
- Protocol description: PBM binding z-score (relative to random genomic background probes); higher = stronger binding; sequences stand for … in GC…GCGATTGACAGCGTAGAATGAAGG
Outcome: yes (1) for PBM binding z-score of at least 2; no (0) for anything lower.

[[record]]
construct_sequence = "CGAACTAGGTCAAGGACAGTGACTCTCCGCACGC"
qualitative_label = "no (0)"

[[record]]
construct_sequence = "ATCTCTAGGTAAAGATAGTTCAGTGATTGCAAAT"
qualitative_label = "no (0)"

[[record]]
construct_sequence = "TAGCCTAGGTCATTGGGCGAGTATAGTACGCATC"
qualitative_label = "yes (1)"


q: Identify whether the reported PBM binding z-score of the following sequence is 2 or greater: ATATGTAGGTTAGCTTGGGTCATTCAGACTAGGC
a: yes (1)

q: Identify whether the reported PBM binding z-score of the following sequence is 2 or greater: CGTTACGGGTCACGAGGTTATAGCACGACGAGCG
a: yes (1)

q: Identify whether the reported PBM binding z-score of the following sequence is 2 or greater: CCTCGGAGGACAACAGGAGGTCCGAGCTGCCAGA
a: no (0)
